Target: human CB2 receptor (Homo sapiens)
Construct: expressed in transfected cells; host or cells: SK-N-MC cells, stably transfected with pcDNA3 CB-2 (human); semi-purified membrane pellet
Sequence (P34972 whole entry): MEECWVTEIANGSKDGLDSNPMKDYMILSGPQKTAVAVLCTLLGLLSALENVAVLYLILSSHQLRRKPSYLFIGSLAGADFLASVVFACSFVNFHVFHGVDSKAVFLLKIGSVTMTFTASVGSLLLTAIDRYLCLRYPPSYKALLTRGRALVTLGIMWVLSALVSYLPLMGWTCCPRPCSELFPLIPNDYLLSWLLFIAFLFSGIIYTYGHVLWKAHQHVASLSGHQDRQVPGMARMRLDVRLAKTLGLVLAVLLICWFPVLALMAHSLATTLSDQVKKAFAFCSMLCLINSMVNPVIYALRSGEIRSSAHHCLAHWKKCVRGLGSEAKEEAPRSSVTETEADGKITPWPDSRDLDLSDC
Test: Binding assay for CB2 agonists or inverse agonists, [3H]-CP-55,940 displacement on membranes of transfected SK-N-MC cells
Settings: read-out: Cannabinoid CB2 Receptor Binding percent inhibition
Record form. Attribute: inhibition at 0.2 µM. Fill in for each entry.
Output spec: scalar in %, unitless text.

Q: I have this molecule here, COc1ccc(-c2c3c(nn2-c2ccc(Cl)cc2Cl)[C@@H](C(=O)N[C@H](C)c2ccccc2)CCC3)cc1 [Cpd 25] , and I need its recorded inhibition at 0.2 µM.
Ans: 35

Q: Try the molecule C[C@@H](NC(=O)C1CCCc2c1nn(-c1ccc(Cl)cc1Cl)c2-c1ccc(Cl)cc1)C1CCCCC1 (some centres unmarked) [Cpd 29]
Ans: 7

Q: Try the molecule C[C@@H](NC(=O)[C@H]1CCCc2c1nn(-c1ccc(Cl)cc1Cl)c2-c1ccc(Br)cc1)c1ccccc1 [Cpd 45]
Ans: 11

Q: Try the molecule C[C@@H](NC(=O)[C@@H]1CCCc2c1nn(-c1ccc(Cl)cc1Cl)c2-c1ccc(Br)s1)c1ccccc1 [Cpd 53]
Ans: 36

Q: Try the molecule CN(NC(=O)C1CCCc2c1nn(-c1ccc(Cl)cc1Cl)c2-c1ccc(Cl)cc1)c1ccccc1 (centres unmarked) [Cpd 35]
Ans: 3

Q: Try the molecule O=C(NN1CCCCC1)C1CCCc2c1nn(-c1ccc(Cl)cc1Cl)c2-c1ccc(Br)cc1 (centres unmarked) [Cpd 41]
Ans: 26

Q: Try the molecule C[C@@H](NC(=O)[C@H]1CCCc2c1nn(-c1ccc(Cl)cc1Cl)c2-c1ccc(Br)s1)C1CCCCC1 [Cpd 54]
Ans: 12

Q: Try the molecule COc1ccc(-c2c3c(nn2-c2ccc(Cl)cc2Cl)C(C(=O)NN(C)c2ccccc2)CCC3)cc1 (centres unmarked) [Cpd 26]
Ans: 32
